Test system Intestinal-type alkaline phosphatase (Bos taurus, UniProt P19111), pIC50 listed for each of the compounds.
pIC50: −log10 of the molar value.
quantity: pIC50

- compound_structure_string: "c1ccc(-c2ccc(C3=Nn4c(nnc4-c4ccncc4)SC3)cc2)cc1"
  study_target: "Intestinal-type alkaline phosphatase (Bos taurus, UniProt P19111)"
  quantity: "pIC50"
  numeric_readout: 5.42
- compound_structure_string: "Clc1ccc(C2=Nn3c(nnc3-c3ccncc3)SC2)cc1Cl"
  study_target: "Intestinal-type alkaline phosphatase (Bos taurus, UniProt P19111)"
  quantity: "pIC50"
  numeric_readout: 5.88
- compound_structure_string: "Cc1ccccc1OCc1nn2c(-c3ccncc3)nnc2s1"
  study_target: "Intestinal-type alkaline phosphatase (Bos taurus, UniProt P19111)"
  quantity: "pIC50"
  numeric_readout: 5.51
- compound_structure_string: "c1ccc2c(C3=Nn4c(nnc4-c4ccncc4)SC3)cccc2c1"
  study_target: "Intestinal-type alkaline phosphatase (Bos taurus, UniProt P19111)"
  quantity: "pIC50"
  numeric_readout: 5.35
- compound_structure_string: "c1coc(-c2nn3c(-c4ccncc4)nnc3s2)c1"
  study_target: "Intestinal-type alkaline phosphatase (Bos taurus, UniProt P19111)"
  quantity: "pIC50"
  numeric_readout: 5.49
- compound_structure_string: "Fc1cc(Cl)ccc1-c1nn2c(-c3ccncc3)nnc2s1"
  study_target: "Intestinal-type alkaline phosphatase (Bos taurus, UniProt P19111)"
  quantity: "pIC50"
  numeric_readout: 6.04
- compound_structure_string: "Fc1ccc(-c2nn3c(-c4ccncc4)nnc3s2)cc1Cl"
  study_target: "Intestinal-type alkaline phosphatase (Bos taurus, UniProt P19111)"
  quantity: "pIC50"
  numeric_readout: 5.70
- compound_structure_string: "c1cc(-c2nnc3sc(-c4ccoc4)nn23)ccn1"
  study_target: "Intestinal-type alkaline phosphatase (Bos taurus, UniProt P19111)"
  quantity: "pIC50"
  numeric_readout: 5.11
- compound_structure_string: "Nn1c(S)nnc1-c1ccncc1"
  study_target: "Intestinal-type alkaline phosphatase (Bos taurus, UniProt P19111)"
  quantity: "pIC50"
  numeric_readout: 5.35
- compound_structure_string: "COc1ccc(OCc2nn3c(-c4ccncc4)nnc3s2)cc1"
  study_target: "Intestinal-type alkaline phosphatase (Bos taurus, UniProt P19111)"
  quantity: "pIC50"
  numeric_readout: 5.43
- compound_structure_string: "Oc1ccc(OCc2nn3c(-c4ccncc4)nnc3s2)cc1"
  study_target: "Intestinal-type alkaline phosphatase (Bos taurus, UniProt P19111)"
  quantity: "pIC50"
  numeric_readout: 5.25
- compound_structure_string: "O=[N+]([O-])c1cccc(C2=Nn3c(nnc3-c3ccncc3)SC2)c1"
  study_target: "Intestinal-type alkaline phosphatase (Bos taurus, UniProt P19111)"
  quantity: "pIC50"
  numeric_readout: 5.44
- compound_structure_string: "Fc1ccc(OCc2nn3c(-c4ccncc4)nnc3s2)cc1"
  study_target: "Intestinal-type alkaline phosphatase (Bos taurus, UniProt P19111)"
  quantity: "pIC50"
  numeric_readout: 5.59
- compound_structure_string: "CCOc1ccc(Cc2nn3c(-c4ccncc4)nnc3s2)cc1"
  study_target: "Intestinal-type alkaline phosphatase (Bos taurus, UniProt P19111)"
  quantity: "pIC50"
  numeric_readout: 5.21
- compound_structure_string: "Fc1cccc(C2=Nn3c(nnc3-c3ccncc3)SC2)c1"
  study_target: "Intestinal-type alkaline phosphatase (Bos taurus, UniProt P19111)"
  quantity: "pIC50"
  numeric_readout: 5.01

---

// values below are reported inhibition
target: Cholinesterase (Homo sapiens, UniProt P06276); test: Inhibition of human BChE using butyrylthiocholine iodide as substrate preincubated for 10 mins before substrate addition after 15 mins by Ellman's method; set-up: concentration or dose not given beside the values
Sequence (P06276 whole entry): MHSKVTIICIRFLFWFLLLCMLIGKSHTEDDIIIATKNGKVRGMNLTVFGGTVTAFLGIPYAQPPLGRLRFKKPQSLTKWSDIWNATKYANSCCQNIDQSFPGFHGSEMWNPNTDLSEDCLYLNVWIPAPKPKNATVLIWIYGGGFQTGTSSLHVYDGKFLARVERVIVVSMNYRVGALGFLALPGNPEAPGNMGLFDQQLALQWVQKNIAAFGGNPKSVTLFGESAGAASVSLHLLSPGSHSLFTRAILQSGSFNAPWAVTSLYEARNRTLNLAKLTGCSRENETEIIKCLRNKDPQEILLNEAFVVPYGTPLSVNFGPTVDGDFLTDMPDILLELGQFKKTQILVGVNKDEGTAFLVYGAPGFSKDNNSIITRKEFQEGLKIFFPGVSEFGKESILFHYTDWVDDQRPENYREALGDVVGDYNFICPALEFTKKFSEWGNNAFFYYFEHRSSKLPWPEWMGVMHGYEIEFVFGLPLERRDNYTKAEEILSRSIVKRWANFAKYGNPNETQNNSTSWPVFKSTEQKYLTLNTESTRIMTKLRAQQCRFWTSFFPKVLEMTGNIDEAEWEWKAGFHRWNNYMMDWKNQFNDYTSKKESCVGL

- compound_structure_string: "Cc1occc1-c1nn2c(-c3ccncc3)nnc2s1"
  inhibition: "41.2%"
- compound_structure_string: "Fc1cc(Cl)c(-c2nn3c(-c4ccncc4)nnc3s2)cc1F"
  inhibition: "18.2%"
- compound_structure_string: "Fc1ccc(-c2nn3c(-c4ccncc4)nnc3s2)cc1Cl"
  inhibition: "14.4%"
- compound_structure_string: "Fc1cccc(C2=Nn3c(nnc3-c3ccncc3)SC2)c1"
  inhibition: "38.7%"
- compound_structure_string: "COc1cccc(C2=Nn3c(nnc3-c3ccncc3)SC2)c1"
  inhibition: "28.9%"

---

biological target: UniProtKB P06276; assay: Inhibition of human BChE using butyrylthiocholine iodide as substrate preincubated for 10 mins before substrate addition after 15 mins by Ellman's method
pIC50: −log10 of the molar value.

- compound_structure_string: "CCOc1ccc(Cc2nn3c(-c4ccncc4)nnc3s2)cc1"
  pIC50: 4.49
- compound_structure_string: "Clc1ccc(C2=Nn3c(nnc3-c3ccncc3)SC2)cc1Cl"
  pIC50: 4.91
- compound_structure_string: "c1coc(-c2nn3c(-c4ccncc4)nnc3s2)c1"
  pIC50: 4.21
- compound_structure_string: "COc1ccc(OCc2nn3c(-c4ccncc4)nnc3s2)cc1"
  pIC50: 4.42
- compound_structure_string: "Fc1ccc(OCc2nn3c(-c4ccncc4)nnc3s2)cc1"
  pIC50: 4.27

---

// values below are reported IC50
target: Cholinesterase (Homo sapiens, UniProt P06276)
quantity: IC50 (µM)

- compound_structure_string: "O=[N+]([O-])c1cccc(C2=Nn3c(nnc3-c3ccncc3)SC2)c1"
  quantity: "IC50"
  numeric_readout: 16.6
- compound_structure_string: "Nn1c(S)nnc1-c1ccncc1"
  quantity: "IC50"
  numeric_readout: 49.6
- compound_structure_string: "Cc1ccccc1OCc1nn2c(-c3ccncc3)nnc2s1"
  quantity: "IC50"
  numeric_readout: 51.3
- compound_structure_string: "Oc1ccccc1OCc1nn2c(-c3ccncc3)nnc2s1"
  quantity: "IC50"
  numeric_readout: 18
- compound_structure_string: "c1ccc(-c2ccc(C3=Nn4c(nnc4-c4ccncc4)SC3)cc2)cc1"
  quantity: "IC50"
  numeric_readout: 42.6
- compound_structure_string: "c1cc(-c2nnc3sc(-c4ccoc4)nn23)ccn1"
  quantity: "IC50"
  numeric_readout: 36.2
- compound_structure_string: "CN(C)C(=O)Oc1cccc([N+](C)(C)C)c1"
  quantity: "IC50"
  numeric_readout: 26.1
- compound_structure_string: "Cc1ccc(C2=Nn3c(nnc3-c3ccncc3)SC2)cc1"
  quantity: "IC50"
  numeric_readout: 26.1
- compound_structure_string: "Fc1cc(Cl)ccc1-c1nn2c(-c3ccncc3)nnc2s1"
  quantity: "IC50"
  numeric_readout: 9.57
- compound_structure_string: "Oc1ccc(OCc2nn3c(-c4ccncc4)nnc3s2)cc1"
  quantity: "IC50"
  numeric_readout: 39.1
- compound_structure_string: "Clc1cccc(C2=Nn3c(nnc3-c3ccncc3)SC2)c1"
  quantity: "IC50"
  numeric_readout: 39.4
- compound_structure_string: "c1ccc2c(C3=Nn4c(nnc4-c4ccncc4)SC3)cccc2c1"
  quantity: "IC50"
  numeric_readout: 52.8

---

assay: Anticancer activity against Syrian golden hamster BHK21 cells at 100 uM after 48 hrs by SRB assay; format: functional; conditions: Mesocricetus auratus, BHK-21, 48 h; read-out: GI
// values below are reported inhibition of growth at 100 µM
quantity: inhibition of growth at 100 µM (%)

- molecule: "Fc1cccc(C2=Nn3c(nnc3-c3ccncc3)SC2)c1"
  quantity: "inhibition of growth at 100 µM"
  numeric_readout: 64.3
- molecule: "Clc1cccc(C2=Nn3c(nnc3-c3ccncc3)SC2)c1"
  quantity: "inhibition of growth at 100 µM"
  numeric_readout: 56.4
- molecule: "Clc1ccc(C2=Nn3c(nnc3-c3ccncc3)SC2)cc1Cl"
  quantity: "inhibition of growth at 100 µM"
  numeric_readout: 63.5
- molecule: "c1coc(-c2nn3c(-c4ccncc4)nnc3s2)c1"
  quantity: "inhibition of growth at 100 µM"
  numeric_readout: 50.9
- molecule: "Cc1ccccc1OCc1nn2c(-c3ccncc3)nnc2s1"
  quantity: "inhibition of growth at 100 µM"
  numeric_readout: 62.1
- molecule: "Fc1ccc(OCc2nn3c(-c4ccncc4)nnc3s2)cc1"
  quantity: "inhibition of growth at 100 µM"
  numeric_readout: 52.7
- molecule: "COc1ccc(OCc2nn3c(-c4ccncc4)nnc3s2)cc1"
  quantity: "inhibition of growth at 100 µM"
  numeric_readout: 74
- molecule: "c1ccc(-c2ccc(C3=Nn4c(nnc4-c4ccncc4)SC3)cc2)cc1"
  quantity: "inhibition of growth at 100 µM"
  numeric_readout: 45.8
- molecule: "CCOc1ccc(Cc2nn3c(-c4ccncc4)nnc3s2)cc1"
  quantity: "inhibition of growth at 100 µM"
  numeric_readout: 48.6
- molecule: "CC[C@]1(O)C[C@H]2CN(CCc3c([nH]c4ccccc34)[C@@](C(=O)OC)(c3cc4c(cc3OC)N(C=O)[C@H]3[C@@](O)(C(=O)OC)[C@H](OC(C)=O)[C@]5(CC)C=CCN6CC[C@]43[C@@H]65)C2)C1 [VINCRISTINE]"
  quantity: "inhibition of growth at 100 µM"
  numeric_readout: 74.5
- molecule: "Nn1c(S)nnc1-c1ccncc1"
  quantity: "inhibition of growth at 100 µM"
  numeric_readout: 48.3
- molecule: "Fc1ccc(-c2nn3c(-c4ccncc4)nnc3s2)cc1Cl"
  quantity: "inhibition of growth at 100 µM"
  numeric_readout: 51.4
- molecule: "Oc1ccc(OCc2nn3c(-c4ccncc4)nnc3s2)cc1"
  quantity: "inhibition of growth at 100 µM"
  numeric_readout: 60.5
- molecule: "Cc1occc1-c1nn2c(-c3ccncc3)nnc2s1"
  quantity: "inhibition of growth at 100 µM"
  numeric_readout: 64.7
- molecule: "Fc1cc(Cl)c(-c2nn3c(-c4ccncc4)nnc3s2)cc1F"
  quantity: "inhibition of growth at 100 µM"
  numeric_readout: 58.9
- molecule: "Cc1ccc(C2=Nn3c(nnc3-c3ccncc3)SC2)cc1"
  quantity: "inhibition of growth at 100 µM"
  numeric_readout: 72.6
- molecule: "O=[N+]([O-])c1cccc(C2=Nn3c(nnc3-c3ccncc3)SC2)c1"
  quantity: "inhibition of growth at 100 µM"
  numeric_readout: 67.1
- molecule: "c1ccc2c(C3=Nn4c(nnc4-c4ccncc4)SC3)cccc2c1"
  quantity: "inhibition of growth at 100 µM"
  numeric_readout: 69.2
- molecule: "Oc1ccccc1OCc1nn2c(-c3ccncc3)nnc2s1"
  quantity: "inhibition of growth at 100 µM"
  numeric_readout: 53.8
- molecule: "Fc1cc(Cl)ccc1-c1nn2c(-c3ccncc3)nnc2s1"
  quantity: "inhibition of growth at 100 µM"
  numeric_readout: 55.6
- molecule: "COc1cccc(C2=Nn3c(nnc3-c3ccncc3)SC2)c1"
  quantity: "inhibition of growth at 100 µM"
  numeric_readout: 73.3
- molecule: "c1cc(-c2nnc3sc(-c4ccoc4)nn23)ccn1"
  quantity: "inhibition of growth at 100 µM"
  numeric_readout: 31.2
